Taken from paper PMC8567202.

molecular target: T1, Smad2 wild type, full length (UniProt Q62432 1-467); assay: fluorescence polarisation; fluorescence anisotropy; F-Ahx-labelled peptide fixed (2.5 μM in the methods, 2.5 nM in the legend), Smad2 WT or mutant varied (0-250 μM in the methods, 0-150 μM in the legend); 20 mM Tris pH 7.9, 160 mM NaCl; 10 min incubation; conditions: both partners purified
T1 construct: Smad2, full length (FL), bacterially expressed from pET-30a; also called Smad2 WT; Smad2-FL; source: E. coli BL21 RIL codon plus, purified (Ni-NTA)
T1 sequence (Q62432 whole entry): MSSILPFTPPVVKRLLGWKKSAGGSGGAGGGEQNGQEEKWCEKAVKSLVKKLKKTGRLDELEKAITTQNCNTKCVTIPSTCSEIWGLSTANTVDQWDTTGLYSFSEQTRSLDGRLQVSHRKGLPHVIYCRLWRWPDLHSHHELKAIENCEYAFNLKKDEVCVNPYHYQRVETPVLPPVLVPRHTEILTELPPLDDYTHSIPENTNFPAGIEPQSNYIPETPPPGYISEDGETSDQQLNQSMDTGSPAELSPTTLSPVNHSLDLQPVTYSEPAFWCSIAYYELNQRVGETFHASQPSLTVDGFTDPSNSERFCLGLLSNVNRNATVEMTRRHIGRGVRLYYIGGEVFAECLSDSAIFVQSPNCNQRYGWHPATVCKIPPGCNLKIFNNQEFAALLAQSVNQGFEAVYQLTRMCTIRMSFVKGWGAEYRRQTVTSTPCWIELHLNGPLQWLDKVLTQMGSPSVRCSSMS
Square brackets hold non-standard residues; d marks the D form. Ends that are not written are not given here. fluorescein = fluorescein-6-aminohexanoyl (F-Ahx); pS = N[C@@H](COP(=O)(O)O)C(=O)O; Ahx = NCCCCCC(=O)O
attributeMeasured: pKd
Quick note: pKd means taking -log10 of the concentration in moles per liter.

Summary for this binder, {fluorescein-Ahx}-YDMTT[pS]G[pS]G[pS]GLPLL (type I TGF-β receptor (TβRI), GS region, triply phosphorylated; also called GS peptide; TβRI peptide; source: synthetic peptide; bought: AlanScientific) [TβRI GS region peptide (F-Ahx-YDMTTpSGpSGpSGLPLL)] : pKd is 7.70
